Recorded koff for the following binders
# subject.of.test: T1, chimeric construct (CHIM) (human)
# T1 construct: CEACAM6 AA 1-273 joined to the membrane-peripheral region containing domain B3 of CEA (AA 596-687), C-terminal 6xHis; also called chimeric CEA
# T1 chain: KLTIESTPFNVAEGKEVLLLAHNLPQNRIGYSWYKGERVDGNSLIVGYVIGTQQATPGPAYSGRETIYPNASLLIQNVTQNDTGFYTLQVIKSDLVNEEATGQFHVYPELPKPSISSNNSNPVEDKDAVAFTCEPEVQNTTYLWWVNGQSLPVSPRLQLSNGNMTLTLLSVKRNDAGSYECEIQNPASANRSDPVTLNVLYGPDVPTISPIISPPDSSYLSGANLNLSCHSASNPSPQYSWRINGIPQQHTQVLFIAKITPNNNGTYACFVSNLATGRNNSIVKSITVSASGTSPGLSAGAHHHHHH
# method.description: SPR; binding to CHIM

{"binder": "BGA1789 (antibody, human IgG1, V domains shown, Built on the BGA7592-1F-ph-M (BGA2433) template; human IgG1/kappa) VH: QVQLVQSGAEVKKPGASVKVSCKASGYIFTSYWLHWVRQAPGQGLEWIGYINPQTGYTSYAQKFQGRVTMTRDTSTSTVYMELSSLRSEDTAVYYCAREYGNYNYPLDYWGQGTLVTVSS VL: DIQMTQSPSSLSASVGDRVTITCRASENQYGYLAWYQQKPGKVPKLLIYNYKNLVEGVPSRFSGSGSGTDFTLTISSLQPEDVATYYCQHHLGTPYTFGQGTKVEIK", "koff [s⁻¹]": 0.000463}
{"binder": "BGA6710 (antibody, human IgG1, V domains shown, BGA2433 with W33Y (VH) and T51Y (VL); wild-type human IgG1 format) VH: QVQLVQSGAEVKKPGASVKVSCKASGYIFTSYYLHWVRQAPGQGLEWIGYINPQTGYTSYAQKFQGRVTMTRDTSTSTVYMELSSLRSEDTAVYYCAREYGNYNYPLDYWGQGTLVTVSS VL: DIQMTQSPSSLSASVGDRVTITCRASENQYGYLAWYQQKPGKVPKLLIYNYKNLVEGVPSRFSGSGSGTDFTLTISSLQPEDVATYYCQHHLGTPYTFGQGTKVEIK", "koff [s⁻¹]": 0.000475}
